- protocol_description: Leishmania major promastigote growth inhibition, primary screen (AID 1063);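 note: promastigotes grown with compound for 44 hours at 28 °C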
- cond: Leishmania major promastigotes, resazurin fluorescence viability; at 10 µM
The whole screen tested about 200,000 compounds, of which about 18,000 (9%) were called active. Cut-off read from the data, not from the text of the source: active = inhibition above about 50%; inactive = the rest. The sample as a whole holds a higher share of actives than the screen did.
Possible outcomes: active, inactive

[[record]]
compound = "O=C(NC1CCN(Cc2ccccc2)CC1)c1ccccc1F"
answer_label = "active"

[[record]]
compound = "CCOC(=O)C(C)n1nc(-c2ccccc2)c2ccccc2c1=O (stereo unspecified)"
answer_label = "inactive"

[[record]]
compound = "Cc1cc(-c2csc(N)n2)c(C)n1Cc1ccccc1"
answer_label = "inactive"

[[record]]
compound = "Cc1ccc(C(=O)O)cc1N1C(=O)CCCC1=O"
answer_label = "inactive"

[[record]]
compound = "COc1ccc(-n2nc(C(=O)Nc3cc(OC)c(OC)c(OC)c3)c3ccccc3c2=O)c(OC)c1"
answer_label = "inactive"

[[record]]
compound = "Cc1ccc(SCCC(=O)NC(C(C)C)C(C)C)cc1"
answer_label = "active"

[[record]]
compound = "COc1ccccc1NC(=O)COC(=O)Cc1ccc(S(=O)(=O)N2CCCCC2)s1"
answer_label = "inactive"

[[record]]
compound = "CCCCCCCCc1c(O)nc(-n2[nH]c(C)c(CCO)c2=O)[nH]c1=O"
answer_label = "inactive"

[[record]]
compound = "S=c1[nH]nc2c3c4c(sc3ncn12)CCCC4"
answer_label = "active"

[[record]]
compound = "O=C(NCc1ccco1)C1(c2ccc(Cl)cc2)CCCC1"
answer_label = "active"

[[record]]
compound = "Cc1ccc(SCCC(=O)NCc2ccccn2)cc1"
answer_label = "inactive"

[[record]]
compound = "CC1COc2ccccc2N1C(=O)c1cccnc1Cl (stereo unspecified)"
answer_label = "inactive"

[[record]]
compound = "c1nnc2c3c4c(sc3ncn12)CCC4"
answer_label = "inactive"

[[record]]
compound = "Cc1cccc(C)c1NC(=O)C1CCCN1C(=O)OC(C)(C)C (stereo unspecified)"
answer_label = "inactive"

[[record]]
compound = "Cc1ncn(C23CC4CC(CC(O)(C4)C2)C3)n1"
answer_label = "inactive"

[[record]]
compound = "O=C(CC1SC(=Nc2ccccc2F)N(CCN2CCOCC2)C1=O)Nc1ccc(F)cc1F (stereo unspecified)"
answer_label = "active"

[[record]]
compound = "CCCCOC(=O)c1ccc(NC(c2ccc(C)cc2)P(=O)(OC)OC)cc1 (stereo unspecified)"
answer_label = "inactive"

[[record]]
compound = "O=C(Cc1ccc(S(=O)(=O)N2CCCC2)s1)NC1CCCCCC1"
answer_label = "active"

[[record]]
compound = "O=C(NCCc1ccccc1)C1CCN(S(=O)(=O)c2ccc(Br)s2)CC1"
answer_label = "inactive"

[[record]]
compound = "Cc1ccc(S(=O)(=O)N(C)CC(=O)OCC(=O)N2CC(=O)Nc3ccccc32)cc1"
answer_label = "inactive"

[[record]]
compound = "O=C(Nc1ccc2cn[nH]c2c1)c1ccc(S(=O)(=O)N2CCOCC2)cc1"
answer_label = "inactive"

[[record]]
compound = "O=C(CCNS(=O)(=O)c1ccc(Br)s1)NCc1ccccc1Cl"
answer_label = "inactive"

[[record]]
compound = "CCOP(=O)(OCC)C(Nc1ccc([N+](=O)[O-])cc1)c1ccc(Cl)cc1 (stereo unspecified)"
answer_label = "inactive"

[[record]]
compound = "CC(=O)c1cc(-c2ccccc2)n(CC(=O)NC2CCCCC2)c1C"
answer_label = "inactive"

[[record]]
compound = "O=C(NNS(=O)(=O)c1ccc(F)cc1)c1cnccn1"
answer_label = "inactive"

[[record]]
compound = "CCC(=O)N1c2ccccc2NC2=C(C(=O)CCC2)C1c1ccco1 (stereo unspecified)"
answer_label = "inactive"

[[record]]
compound = "CNc1[nH]ncc1[N+](=O)[O-]"
answer_label = "inactive"

[[record]]
compound = "Cc1ccc(SCCC(=O)Nc2cc(C)on2)cc1"
answer_label = "inactive"

[[record]]
compound = "O=C(NCCCCCCNC(=O)NCc1ccco1)NCc1ccco1"
answer_label = "inactive"

[[record]]
compound = "CCOC(=O)c1ccc(N2C(=O)CC(N3CCN(C(=O)c4ccccc4)CC3)C2=O)cc1 (stereo unspecified)"
answer_label = "inactive"

[[record]]
compound = "COc1ccc(C(=O)Nc2ccc(S(=O)(=O)NC(C)C)cc2)cc1"
answer_label = "inactive"

[[record]]
compound = "CN(C)c1ccc(Nc2c3c4c(cccc4n(C)c2=O)C(=O)c2ccccc2-3)cc1"
answer_label = "active"

[[record]]
compound = "O=C(NC1CCCCC1)n1c(=O)oc2cc(S(=O)(=O)N3CCCCC3)ccc21"
answer_label = "inactive"

[[record]]
compound = "C[C@@H]1C[C@@H]2O[C@H]2/C=C\\C=C\\C(=O)Cc2c(Cl)c(O)cc(O)c2C(=O)O1"
answer_label = "active"

[[record]]
compound = "Cc1nc2ccccc2c(C)c1C(=O)c1ccc(F)cc1"
answer_label = "inactive"

[[record]]
compound = "CCN1C(=O)C(CC(=O)Nc2cc(C)ccc2C)SC1=Nc1ccc(S(N)(=O)=O)cc1 (stereo unspecified)"
answer_label = "inactive"

[[record]]
compound = "Cc1cccc(NC(=S)Nc2ccc(Cl)c(Cl)c2)c1"
answer_label = "inactive"

[[record]]
compound = "Cc1ccc(-c2cn(S(=O)(=O)c3cccc([N+](=O)[O-])c3)nc2N)cc1"
answer_label = "inactive"

[[record]]
compound = "CC(=O)c1ccc(NC(=S)NC(=O)CC(C)C)cc1"
answer_label = "inactive"

[[record]]
compound = "O=C(NC1CCCCC1)C1CCCN(S(=O)(=O)c2ccc(Br)s2)C1 (stereo unspecified)"
answer_label = "inactive"

[[record]]
compound = "O=C(Cc1ccc(S(=O)(=O)N2CCOCC2)s1)NCCC(c1ccccc1)c1ccccc1"
answer_label = "active"

[[record]]
compound = "O=C(COC(=O)C12CC3CC(CC(O)(C3)C1)C2)NC12CC3CC(CC(C3)C1)C2"
answer_label = "inactive"

[[record]]
compound = "CN(C)/N=C/c1cn(-c2ccccc2)nc1-c1cccnc1"
answer_label = "inactive"

[[record]]
compound = "COc1cccc(/C=C2\\SC(=N)N(c3ccc(F)cc3)C2=O)c1"
answer_label = "inactive"

[[record]]
compound = "CCc1cccc(NC(=O)CCC(=O)O)c1"
answer_label = "active"

[[record]]
compound = "O=C(CC1CCCCC1)NCc1ccco1"
answer_label = "inactive"

